- method.description: Pharmacokinetic evaluation by oral administration to a mouse (HPLC/MS of blood plasma)
- Format: in vivo, ICR mice
- conditions.used: 50 mg/kg oral, blood plasma thirty minutes later
endpoint.label: unchanged compound in the blood after oral administration

{"columns": ["compound", "observed"],
 "data": [
  ["OC(/C=C/c1ccc2c(c1)OCO2)c1ccc(-c2ccc(F)cc2)cc1 (stereo not shown)", "maintained"],
  ["OC(/C=C/c1ccc2c(c1)OCO2)c1ccc(-c2ccccc2)cc1 (stereo not shown)", "maintained"],
  ["OC(/C=C/c1ccc2c(c1)OCO2)c1ccc(-c2ccccc2)cc1F (stereo not shown)", "maintained"]
]}
